Target: T1, CLL-1 on the surface of CLL-1-positive AML cell lines (HL-60 WT, U937) (human, UniProt Q5QGZ9 1-265)
T1 construct: whole, on cells; also called HL-60 WT cells; U937 cells
T1 sequence (looked up): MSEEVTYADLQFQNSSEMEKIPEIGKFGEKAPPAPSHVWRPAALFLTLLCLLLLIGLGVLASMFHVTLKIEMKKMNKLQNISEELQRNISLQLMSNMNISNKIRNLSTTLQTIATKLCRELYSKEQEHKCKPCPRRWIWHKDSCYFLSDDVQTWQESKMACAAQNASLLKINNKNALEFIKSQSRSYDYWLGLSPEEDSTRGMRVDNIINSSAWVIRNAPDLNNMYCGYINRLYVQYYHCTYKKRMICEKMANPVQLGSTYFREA
Experiment: flow cytometry, HL-60 WT, 200 nM; secondary only 5600
assay-readout: Geometric Mean : B530-H
One number for each entry.

binder: Anti-CLL-1 Binder Clone 2 (scFv, scFv (VL-linker-VH); not shown: FLAG tag) scFv: QSVLTQPLSVSVALGQTARITCGGNNIGSKNVHWYQQKAGQAPVLVIQRDSNRPSGIPERFSGSNSGNTATLTISRAQAGDEADYFCQVWDSNTYVFGTGTKLTVLGGGGSGGGGSGGGGSEVQLVESGGGLVKPGGSLRLSCAASGFTFSDYYMSWIRQAPGKGLEWVSYISSSGSTIYYADSVKGRFTISRDNAKNSLYLQMNSLRDEDTAVYYCARQSAEIVGAFDHWGQGTMVTVSS
assay-readout: Geometric Mean : B530-H
data-value: 11100

Give Geometric Mean : B530-H for each of the items listed below.
1. Anti-CLL-1 Binder Clone 1 (scFv, scFv (VL-linker-VH) from a fully human scFv phage library; not shown: FLAG tag) scFv: SYVLTQPPSVSVAPGQTARITCGGNNIGSKSVHWYQQKPGQAPVLVVYDDSDRPSGIPERFSGSNSGNTATLTISRVEAGDEADYYCQVWDSSSDHPVFGGGTQLIILGGGGSGGGGSGGGGSQVQLVQSGAEVKKPGSSVKVSCKASGGTFSSYAISWVRQAPGQGLEWMGRIIPILGIANYAQKFQGRVTITADESTSTAYMELSSLRSEDTAVYYCAREKDDILTGAYYYGMDVWGQGTTVTVSS
2. Anti-CLL-1 Binder Clone 38 (scFv, scFv (VL-linker-VH); not shown: FLAG tag) scFv: DIQMTQSPSTLSASVGDRVTITCRASQSISSWLAWYQQKPGKAPKLLIYTASSLQSGVPSRFSGSESGTDFTLTISSLQPEDFATYYCQQSYSTPLTFGGGTKVDIKGGGGSGGGGSGGGGSQVQLVQSGAEVKKPGASVKVSCKASGYTFTGYYMHWVRQAPGQGLEWMGWINPNSGGTNYAQKFQGRVTLTRDTSITTAYLELTSLTSDDTAVYYCARGDTGDFFDHWGQGTLVTVSS
3. Anti-CLL-1 Binder Clone 12 (scFv, scFv (VL-linker-VH); not shown: FLAG tag) scFv: DIQMTQSPSSLSASVGDRVTITCQASQDISNYLNWYQQKPGKAPKLLIYDASNLETGVPSRFSGSGSGTDFTLTISSPQPEDLATYYCQQANSFPFTFGQGTKVEIKGGGGSGGGGSGGGGSQVQLVQSGAEVKKPGSSVKVSCKASGYSFTRNDITWVRQANGRGLEWLGRLNPNNGDTVYAEVFQGRVAMTRDTSTDTAYMELASLKSDDTAVYFCARGFWSFDVWGQGTMVTVSS
4. Anti-CLL-1 Binder Clone 6 (scFv, scFv (VL-linker-VH); not shown: FLAG tag) scFv: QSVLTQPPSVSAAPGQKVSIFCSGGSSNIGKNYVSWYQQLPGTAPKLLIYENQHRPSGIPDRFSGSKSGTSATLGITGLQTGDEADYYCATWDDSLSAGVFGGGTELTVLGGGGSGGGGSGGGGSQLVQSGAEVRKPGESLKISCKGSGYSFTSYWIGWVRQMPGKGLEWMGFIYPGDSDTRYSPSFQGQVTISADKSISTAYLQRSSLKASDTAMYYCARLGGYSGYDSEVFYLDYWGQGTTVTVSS
5. Anti-CLL-1 Binder Clone 11 (scFv, scFv (VL-linker-VH); not shown: FLAG tag) scFv: QSVLTQPASVSGSPGQSITISCTGTSSDVGASNSVSWYQRHPGKPPKLMIYDVSNRPSGISNRFSGSKSGNTASLTISGLQSEDEADYYCSSYTGSSTFVVFGGGTQLIILGGGGSGGGGSGGGGSEVQLVESGGGVVQPGGSLRLSCAASGFTFSSYWMSWVRQAPGKGLEWVANIRQDGSEKYYVDSVKGRFTISRDNAKNSLYLQMNSLRAEDAAVYYCAREQDTAMVAFDYWGQGTLVTVSS
6. Anti-CLL-1 Binder Clone 42 (scFv, scFv (VL-linker-VH); not shown: FLAG tag) scFv: EIVLTQSPATLSLSPGERATLSCRASQSVSSYLAWYQQKPGQAPRLLIYDASNRATGIPDRFSGSGSGTDFTLTISRLEPEDFAVYYCQQYGSSPVTFGQGTKLEIKGGGGSGGGGSGGGGSQVQLVQSGAEVKKPGSSVKVSCKASGGTFSSYAISWVRQAPGQGLEWMGGIIPIFGTANYAQKFQGRVIMTTDTSTSTAHMELRSLRSDDTAVYYCARDADEFGAFDIWGQGTTVTVSS
7. Anti-CLL-1 Binder Clone 40 (scFv, scFv (VL-linker-VH); not shown: FLAG tag) scFv: QSVLTQPPSVSAAPGQKVTISCSGSSSNIGNNYVSWYQQLPGTAPKLLIYDNNKRPSGIPDRFSGSESGTSATLGITGLQTGDEADYYCGTWDSSLSAWVFGGGTQLIILGGGGSGGGGSGGGGSQVQLQQSGPGLVKPSQTLSLTCAISGDSVSSNSAAWNWIRQSPSRGLEWLGRTHYRSKWYNDYAVSVKSRITISADTSKNQFSLQLNSVTPEDTAVYYCARDRYTVRPDAFDIWGQGTTVTVSS
8. Anti-CLL-1 Binder Clone 4 (scFv, scFv (VL-linker-VH); not shown: FLAG tag) scFv: QSVVTQPPSVSAAPGQKVTISCSGSSPNIGKNYVSWYQQLPGTAPKLLIYDNNKRPSGIPDRFSGSKSGTSATLGITGLQTGDEADYYCGTWDSSLSGYVFGTGTKVTVLGGGGSGGGGSGGGGSQVQLVESGGGVVQPGRSLRLSCAASGFTFSSYGMHWVRQAPGKGLEWVAFISHDGSNKYYADSVKGRSTISRDNSKSTLFLQMNSLRDEDTAVYFCAREGQLTTSWDFFDYWGHGTLVTVSS

1: 18100; 2: 19800; 3: 11800; 4: 9390; 5: 20500; 6: 10400; 7: 23100; 8: 11600

Give Geometric Mean : B530-H for each of the items listed below.
1. Anti-CLL-1 Binder Clone 20 (VHH, also called 20 VH; VH clone 20; not shown: FLAG tag) VHH: QVQLVQSGGGLVQPGGSLRLSCAASDFSFSYYEMSWVRQAPGKGLEWVSTISGSGDSTYYADSVKGRFTISRDNTKNTLYLQMNTLRAEDTATYYCMTDGETWGTHRYTVYWGQGALVTVSS
2. Anti-CLL-1 Binder Clone 10 (scFv, scFv (VL-linker-VH); not shown: FLAG tag) scFv: DIQMTQSPSFLSASVGDRVTITCRASQGISSYLAWYQQKPGKAPKLLIYSASSLQSGVPSRFSGSGSGTDFTLTISSLQPEDFATYYCQQSYNSPTFGQGTRLEIKGGGGSGGGGSGGGGSQVQLVQSGAEVKKPGASVKVSCKASGYTFTGYYMHWVRQAPGQGLEWMGWMNPNSGNTGYAQKFQGRVTMTRNTSISTAYLELTSLTSDDTAVYYCARGDTGDFFDHWGQGTLVTVSS

1. 9110
2. 24900
